All figures here come from paper PMC12057046.

B1: TET3 peptide 1705-1720 (methylcytosine dioxygenase TET3), 16-mer library wild type / USP8 rhodanese domain (ubiquitin carboxyl-terminal hydrolase 8, residues 174-317) (parent)
chain 1: GLALWEAKMKQLAERA
chain 2: KCETKEKGAITAKELYTMMTDKNISLIIMDARRMQDYQDSCILHSLSVPEEAISPGVTASWIEAHLPDDSKDTWKKRGNVEYVVLLDWFSSAKDLQIGTTLRSLKDALFKWESKTVLRNEPLVLEGGYENWLLCYPQYTTNAKV

Variants of: B1
experimental_details: peptide-phage display deep mutational scan (M13, 16-mer library, displayed with a C-terminal GGGSG linker encoded by the 3' flank) selected against the GST-tagged USP8 rhodanese domain, four rounds; NGS counts summed over selection …
measurement_conditions: with USP8 rhodanese domain (ubiquitin carboxyl-terminal hydrolase 8, residues 174-317), 10 µg GST-bait on MaxiSorp, pre-cleared on GST, 2 h at 4 °C, five washes with 0.05% Tween 20 in PBS, not graded, scale: average over two replicas of the peptide's fractional NGS count
quantity: screen value
Output spec: single numeric token, no unit.

Recorded results for 10 variants are shown here.
Name the reported screen value value associated with the variant chain 1 A13D 2.6e-05

Then what about the variant chain 1 K10I ? 0.00024

Similarly, chain 1 A16Q ? 0.00138

Same for chain 1 K8P 1.73e-05

And for chain 1 W5P ? 4.33e-05

Note, next up: chain 1 L12F 8.66e-06

Here is the next variant: chain 1 R15Y 0.0485

Also, chain 1 M9R please. 0.000108

Entry to check: chain 1 A16N 0.00504

Queued: chain 1 A13K 2.6e-05

Then this variant:
Value lookup for screen value; key = chain 1 E6F 8.66e-06
